test system: amphetamine-induced symptoms (characteristic amphetamine behaviour of cage movement); experiment: Antagonism of amphetamine symptoms in rats (rat amphetamine test); assay type: in vivo; settings: Rattus norvegicus, sc, 5 h, read-out: ED50, rat amphetamine test, 5 hr., s.c.; d-amphetamine sulfate 5 mg/kg i.p. 5 hr after treatment; block of cage movement in 50% of rats
// assign T if ED50 falls strictly below 0.02 mg/kg, else F (ties count as F)

- compound: "Cc1ccc(S(=O)(=O)NCCCCN2CC[C@H]3[C@H](C2)c2cc(F)ccc2N3c2ccc(F)cc2)cc1 (relative stereo)"
  class.assignment: "F"

Identify whether the compound CC(=O)NCCCCN1CC[C@H]2[C@H](C1)c1cc(F)ccc1N2c1ccc(F)cc1 (relative stereo) records ED50 below 0.02 mg/kg. T

====

tested on: amphetamine-induced symptoms (characteristic amphetamine behaviour of cage movement); experiment: Antagonism of amphetamine symptoms in rats (rat amphetamine test); assay type: in vivo; conditions: Rattus norvegicus, sc, 24 h, s.c.; d-amphetamine sulfate 5 mg/kg i.p. 24 hr after treatment; block of cage movement in 50% of rats; read-out: ED50, rat amphetamine test, 24 hr.
measure.name: ED50 (mg/kg)
# unit: mg/kg | format: bare number

- compound: "CC(=O)NCCCCCCN1CC[C@H]2[C@H](C1)c1cc(F)ccc1N2c1ccc(F)cc1 (relative stereo) [Example 9, (±) 2-(N--acetyl-1'-amino-n-hex-6'-yl)]"
  measurement.unit: "mg/kg"
  meas.value: 0.032

Reported ED50 of COc1ccccc1C(=O)NCCCCN1CC[C@H]2[C@H](C1)c1cc(F)ccc1N2c1ccc(F)cc1 (relative stereo) [Example 15] : 1

Reported ED50 of CC(=O)NCCCCCCCN1CC[C@H]2[C@H](C1)c1cc(F)ccc1N2c1ccc(F)cc1 (relative stereo) [Example 10, (±) 2-(N--acetyl-1'-amino-n-hept-7'-yl)] : 0.05

====

Let's go through some recorded pIC50 values for dopamine receptors (Rattus norvegicus, UniProt P61169) together.
Scale: negative log10 of molar concentration, which is what pIC50 denotes.

These recorded examples may help you get a feel for the data.
- compound: "CC(=O)NCCN1CC[C@H]2[C@H](C1)c1cc(F)ccc1N2c1ccc(F)cc1 (relative stereo)"
  pIC50: 7.80
- compound: "CC(=O)NCCCCCN1CC[C@H]2[C@H](C1)c1cc(F)ccc1N2c1ccc(F)cc1 (relative stereo) [Example 8, (±) 2-(N--acetyl-1'-amine-n-pent-5'-yl)]"
  pIC50: 8.05

Turning now to a further compound:
dopamine receptors (Rattus norvegicus, UniProt P61169) data for NCCCCN1CC[C@H]2[C@H](C1)c1cc(F)ccc1N2c1ccc(F)cc1 (relative stereo) ; its pIC50: 7.62

====

system: amphetamine-induced symptoms (characteristic amphetamine behaviour of cage movement); assay: Antagonism of amphetamine symptoms in rats (rat amphetamine test); format: in vivo; conditions: Rattus norvegicus, sc, 5 h, read-out: ED50, rat amphetamine test, 5 hr., s.c.; d-amphetamine sulfate 5 mg/kg i.p. 5 hr after treatment; block of cage movement in 50% of rats
measure.name: log10 ED50 (log10 of the value in mg/kg)
Could you please treat all values as log10 of ED50 in mg/kg?

These recorded examples may help you get a feel for the data.
- molecule: "CC(=O)NCCCCCN1CC[C@H]2[C@H](C1)c1cc(F)ccc1N2c1ccc(F)cc1 (relative stereo) [Example 8, (±) 2-(N--acetyl-1'-amine-n-pent-5'-yl)]"
  measure.name: "log10 ED50"
  meas.value: -2.40
- molecule: "CC(=O)NCCCCCCCN1CC[C@H]2[C@H](C1)c1cc(F)ccc1N2c1ccc(F)cc1 (relative stereo) [Example 10, (±) 2-(N--acetyl-1'-amino-n-hept-7'-yl)]"
  measure.name: "log10 ED50"
  meas.value: -1.74
- molecule: "CC(=O)NCCCCCCN1CC[C@H]2[C@H](C1)c1cc(F)ccc1N2c1ccc(F)cc1 (relative stereo) [Example 9, (±) 2-(N--acetyl-1'-amino-n-hex-6'-yl)]"
  measure.name: "log10 ED50"
  meas.value: -2.70
- molecule: "COc1ccccc1C(=O)NCCCCN1CC[C@H]2[C@H](C1)c1cc(F)ccc1N2c1ccc(F)cc1 (relative stereo)"
  measure.name: "log10 ED50"
  meas.value: -0.74
- molecule: "CCOC(=O)NCCCCN1CC[C@H]2[C@H](C1)c1cc(F)ccc1N2c1ccc(F)cc1 (relative stereo)"
  measure.name: "log10 ED50"
  meas.value: -1.70

Turning now to a further molecule:
Reported log10 ED50 of CC(=O)NCCN1CC[C@H]2[C@H](C1)c1cc(F)ccc1N2c1ccc(F)cc1 (relative stereo) : -0.44

The reported numbers originate from patent US4352807A.
